Measured Ki on UniProtKB Q8N1Q1 follows.
Sequence (Q8N1Q1 whole entry): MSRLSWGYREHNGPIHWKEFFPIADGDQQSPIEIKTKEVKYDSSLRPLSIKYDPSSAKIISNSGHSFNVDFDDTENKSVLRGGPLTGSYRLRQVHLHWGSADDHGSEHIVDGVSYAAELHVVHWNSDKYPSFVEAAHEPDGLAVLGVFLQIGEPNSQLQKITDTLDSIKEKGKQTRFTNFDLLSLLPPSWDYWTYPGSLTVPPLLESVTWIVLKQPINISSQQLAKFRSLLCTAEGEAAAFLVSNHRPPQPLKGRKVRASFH

Sample records with Ki:
{"columns": ["COMPOUND", "REPORTED"],
 "data": [
  ["CC1CCCC2(C1)NC(=O)N(CC(=O)NCCc1ccc(S(N)(=O)=O)cc1)C2=O (centres undefined)", "> 10 µM"],
  ["NS(=O)(=O)c1ccc(CNC(=O)CN2C(=O)NC3(CCCCCC3)C2=O)cc1", "> 10 µM"],
  ["CC1CCCC2(C1)NC(=O)N(CC(=O)Nc1ccc(S(N)(=O)=O)cc1)C2=O (centres undefined)", "5.78 µM"]
]}

Consider the compound shown here: NS(=O)(=O)c1ccc(CNC(=O)CN2C(=O)NC3(CCCCC3)C2=O)cc1 What is its recorded Ki?
> 10 µM

Consider the compound shown here: NS(=O)(=O)c1ccc(CCNC(=O)CN2C(=O)NC3(CCCC3)C2=O)cc1 What is its recorded Ki?
> 10 µM

Consider the compound shown here: NS(=O)(=O)c1ccc(NC(=O)CN2C(=O)NC3(CCCCC3)C2=O)cc1 What is its recorded Ki?
0.809 µM

Consider the compound shown here: NS(=O)(=O)c1ccc(C[Se]c2ccc(NC(=O)CN3C(=O)NC4(CCCCC4)C3=O)cc2)cc1 What is its recorded Ki?
> 10 µM

Consider the compound shown here: CC1CCCC2(C1)NC(=O)N(CC(=O)NCc1ccc(S(N)(=O)=O)cc1)C2=O (centres undefined) What is its recorded Ki?
> 10 µM

Consider the compound shown here: NS(=O)(=O)c1ccc(C[Se]c2ccc(NC(=O)CN3C(=O)NC4(CCCCCC4)C3=O)cc2)cc1 What is its recorded Ki?
0.0884 µM
